# system-under-test: T1, recombinant human ErbB2/Fc chimera (human, UniProt P04626 23-652)
# T1 construct: bought from R&D Systems; also called rhErbB2-Fc; rhErb2-Fc; Fc part of the bought chimera not given; not described
# run-description: SPR (Biacore 3000), purified Nanobody over immobilised rhErbB2-Fc

binder	koff
27B7-35GS-2D3 (bispecific antibody, biparatopic Nanobody; C-term myc-His6 tag; also called 2B7-35GS-2D3) EVQLVESGGGLVQPGGSLRLSCAASGFTFSSYAMSWVRQAPGKGLEWVSAISSGGGSITTYADSVKGRFTISRDNAKNTLYLQMSSLKPEDTALYYCAKARSSSSYYDFGSWGQGTQVTVSSGGGGSGGGGSGGGGSGGGGSGGGGSGGGGSGGGGSEVQLVESGGSLVQPGGSLRLSCAASGFTFDDYAMSWVRQVPGKGLEWVSSINWSGTHTDYADSVKGRFTISRNNANNTLYLQMNSLKSEDTAVYYCAKNWRDAGTTWFEKSGSAGQGTQVTVSS	~0.001 s⁻¹
DUMMY-35GS-2D3 (bispecific antibody, C-term myc-His6 tag; also called dummy-2D3; Dummy-2D3) EVQLVESGGGLVQAGGSLRLSCAASGRTFRSYPMGWFRQAPGKEREFVASITGSGGSTYYADSVKGRFTISRDNAKNTVYLQMNSLRPEDTAVYSCAAYIRPDTYLSRDYRKYDYWGQGTQVTVSSGGGGSGGGGSGGGGSGGGGSGGGGSGGGGSGGGGSEVQLVESGGSLVQPGGSLRLSCAASGFTFDDYAMSWVRQVPGKGLEWVSSINWSGTHTDYADSVKGRFTISRNNANNTLYLQMNSLKSEDTAVYYCAKNWRDAGTTWFEKSGSAGQGTQVTVSS	~0.001 s⁻¹

Each recorded value in this set is attributed to patent US20150232562A1.
